Tested on: COG-LL-319h
TEST_PROTOCOL: selective drug sensitivity score (sDSS, relative to normal bone marrow) (sDSS (score)); higher = more potent and effective on the cell line relative to normal bone marrow cells;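 note: ALL cell lines in 384-well plates, five doses spanning 10,000-fold, each plate scaled between vehicle and 100 µmol/L benzalkonium chloride controls, sDSS an adapted area-under-curve metric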
TEST_CONTEXT: 72 h
As shown below, each of these compounds has a reported selective drug sensitivity score value.
Write the value as a bare number.

Worked set:
| COMPOUND | PROPERTY_LABEL | MEAS_VALUE |
| --- | --- | --- |
| O=C(/C=C\n1cnc(-c2cc(C(F)(F)F)cc(C(F)(F)F)c2)n1)NNc1cnccn1 [Selinexor] (top concentration 10000 nM) | selective drug sensitivity score | 9.68 |
| CC1(C)C(C(=O)Nc2ccc(S(=O)(=O)c3ccc(NC(=O)C4C(C)(C)C4(C)C)cc3)cc2)C1(C)C [BRD7116] (top concentration 10000 nM) | selective drug sensitivity score | 1.26 |
| COc1cc(C)c(/C=C/C(C)=C/C=C/C(C)=C/C(=O)O)c(C)c1C [Acitretin] (top concentration 10000 nM) | selective drug sensitivity score | -1.6 |

Fill in: selective drug sensitivity score of CN1CCN(C(=O)c2ccc3cc(CCNc4ncnc5ccc(C#N)cc45)ccc3c2)CC1 [Senexin_B] (top concentration 1000 nM) is ___
-0.6

Fill in: selective drug sensitivity score of Nc1ccccc1NC(=O)c1ccc(CNc2nccc(-c3cccnc3)n2)cc1 [Mocetinostat] (top concentration 10000 nM) is ___
14.7

Fill in: selective drug sensitivity score of CN[C@@H](C)C(=O)N[C@H](C(=O)N1CCC[C@H]1c1nc(C(=O)c2ccc(F)cc2)cs1)C1CCCCC1 [NVP-LCL161] (top concentration 25000 nM) is ___
-2.32

Fill in: selective drug sensitivity score of CCCCCCCCCCCCCCCCCCOP(=O)([O-])OC1CC[N+](C)(C)CC1 [Perifosine] (top concentration 2500 nM) is ___
-0.26

---

Test system: JURKAT
TEST_PROTOCOL: selective drug sensitivity score (sDSS, relative to normal bone marrow) (sDSS (score)); higher = more potent and effective on the cell line relative to normal bone marrow cells
TEST_CONTEXT: 72 h
Label yes for high-side selective drug sensitivity score (at or above 1) and no for low-side selective drug sensitivity score (below it).

The examples below pair each entry with its known result.
| COMPOUND | SYSTEM | CLASS |
| --- | --- | --- |
| CCN1CCN(c2ccc(Nc3cc(N(C)C(=O)Nc4c(Cl)c(OC)cc(OC)c4Cl)ncn3)cc2)CC1 [Infigratinib] (top concentration 1000 nM) | JURKAT | no |
| CC(C)[C@H](C(=O)Nc1ccc(C(=O)NO)cc1)c1ccccc1 [AR-42] (top concentration 10000 nM) | JURKAT | yes |
| NC1(C(=O)N[C@@H](CCO)c2ccc(Cl)cc2)CCN(c2ncnc3[nH]ccc23)CC1 [AZD-5363] (top concentration 10000 nM) | JURKAT | yes |
| Cc1cc2c(F)c(Oc3ncnn4cc(OC[C@@H](C)O)c(C)c34)ccc2[nH]1 [Brivanib] (top concentration 1000 nM) | JURKAT | yes |
| O=c1[nH]c(=O)n([C@H]2C[C@H](O)[C@@H](CO)O2)cc1C(F)(F)F [Trifluridine] (top concentration 10000 nM) | JURKAT | yes |

I'd appreciate it if you could say whether Cc1nc(=O)c2cc(CN(C)c3ccc(C(=O)N[C@@H](CCC(=O)O)C(=O)O)s3)ccc2[nH]1 [Raltitrexed] (top concentration 1000 nM) has selective drug sensitivity score at least equal to 1.
yes

I'd appreciate it if you could say whether Nc1cccc2c1C(=O)N(C1CCC(=O)NC1=O)C2=O (centres undefined) [Pomalidomide] (top concentration 10000 nM) has selective drug sensitivity score at least equal to 1.
no

I'd appreciate it if you could say whether CCS(=O)(=O)Nc1ccc(Oc2ccc(F)cc2F)c(-c2cn(C)c(=O)c3[nH]ccc23)c1 [Mivebresib] (top concentration 10000 nM) has selective drug sensitivity score at least equal to 1.
no

I'd appreciate it if you could say whether CCCCCCCCCCCCCCCCCCOP(=O)([O-])OC1CC[N+](C)(C)CC1 [Perifosine] (top concentration 2500 nM) has selective drug sensitivity score at least equal to 1.
no

---

As shown below, each of these molecules has a reported selective drug sensitivity score value.
System: KASUMI-10
TEST_PROTOCOL: selective drug sensitivity score (sDSS, relative to normal bone marrow) (sDSS (score)); higher = more potent and effective on the cell line relative to normal bone marrow cells
TEST_CONTEXT: 72 h
Write the value as a bare number.

Worked set:
| MOLECULE | PROPERTY_LABEL | MEAS_VALUE |
| --- | --- | --- |
| CN1CC[C@@H](NC(=O)Nc2ccc(C#N)cc2)C[C@@H]1c1nc2ccccc2[nH]1 [Glasdegib] (top concentration 1000 nM) | selective drug sensitivity score | 0 |
| CNC(=O)c1ccc(C)c(-n2c(C)cc(OCc3ccc(F)cc3F)c(Br)c2=O)c1 (top concentration 1000 nM) | selective drug sensitivity score | 0 |
| COc1c(C)cnc(Cn2cnc3c(Cl)nc(N)nc32)c1C [BIIB021] (top concentration 10000 nM) | selective drug sensitivity score | 8.78 |

Fill in: selective drug sensitivity score of C[C@@]1(C(=O)Nc2ccc(F)nc2)CCCN1c1nc(Nc2cc(C3CC3)n[nH]2)c2cccn2n1 (top concentration 10000 nM) is ___
4.68

Fill in: selective drug sensitivity score of CCCCCCCCCCCCCCCCCCOP(=O)([O-])OC1CC[N+](C)(C)CC1 [Perifosine] (top concentration 2500 nM) is ___
-0.36

Fill in: selective drug sensitivity score of Cc1c2oc3c(C)ccc(C(=O)N[C@@H]4C(=O)N[C@H](C(C)C)C(=O)N5CCC[C@H]5C(=O)N(C)CC(=O)N(C)[C@@H](C(C)C)C(=O)O[C@@H]4C)c3nc-2c(C(=O)N[C@@H]2C(=O)N[C@H](C(C)C)C(=O)N3CCC[C@H]3C(=O)N(C)CC(=O)N(C)[C@@H](C(C)C)C(=O)O[C@@H]2C)c(N)c1=O [Dactinomycin] (top concentration 1000 nM) is ___
17.6

---

As shown below, each of these compounds has a reported selective drug sensitivity score value.
Test system: KARPAS-45
TEST_PROTOCOL: selective drug sensitivity score (sDSS, relative to normal bone marrow) (sDSS (score)); higher = more potent and effective on the cell line relative to normal bone marrow cells
TEST_CONTEXT: 72 h
Write the value as a bare number.

| COMPOUND | SYSTEM | MEAS_VALUE |
| --- | --- | --- |
| CCS(=O)(=O)N1CCN(c2ccc(Nc3ncc(C(N)=O)c(NC4CC4)n3)cc2)CC1 [Cerdulatinib] (top concentration 10000 nM) | KARPAS-45 | -2.36 |

Fill in: selective drug sensitivity score of CCCCCCCCc1ccc(CCC(N)(CO)CO)cc1 [Fingolimod] (top concentration 10000 nM) is ___
-0.02

Fill in: selective drug sensitivity score of Cc1sc2c(c1C)C(c1ccc(Cl)cc1)=N[C@@H](CC(=O)NCCCCNC(=O)COc1cccc3c1C(=O)N(C1CCC(=O)NC1=O)C3=O)c1nnc(C)n1-2 (some centres undefined) [dBET1] (top concentration 10000 nM) is ___
-7.68

Fill in: selective drug sensitivity score of Nc1cc(C(F)(F)F)c(-c2cc(N3CCOCC3)nc(N3CCOCC3)n2)cn1 [Buparlisib] (top concentration 10000 nM) is ___
5.28

---

System: DND-41
TEST_PROTOCOL: selective drug sensitivity score (sDSS, relative to normal bone marrow) (sDSS (score)); higher = more potent and effective on the cell line relative to normal bone marrow cells
TEST_CONTEXT: 72 h
Label yes for high-side selective drug sensitivity score (at or above 1) and no for low-side selective drug sensitivity score (below it).

The examples below pair each entry with its known result.
| COMPOUND | SYSTEM | CLASS |
| --- | --- | --- |
| Cc1nc(NC(=O)N2CCC[C@H]2C(N)=O)sc1-c1ccnc(C(C)(C)C(F)(F)F)c1 [Alpelisib] (top concentration 2500 nM) | DND-41 | no |
| O=C(Nc1cnn2ccc(N3CCC[C@@H]3c3cc(F)ccc3F)nc12)N1CC[C@H](O)C1 [Larotrectinib] (top concentration 1000 nM) | DND-41 | no |
| CC1(C)CCC(CN2CCN(c3ccc(C(=O)NS(=O)(=O)c4ccc(NCC5CCOCC5)c([N+](=O)[O-])c4)c(Oc4cnc5[nH]ccc5c4)c3)CC2)=C(c2ccc(Cl)cc2)C1 [Venetoclax] (top concentration 1000 nM) | DND-41 | yes |
| O=C(Nc1cccc(NC(=O)c2cccc(O)c2O)c1)c1cccc(O)c1O [MST-312] (top concentration 10000 nM) | DND-41 | yes |
| CC[C@@H]1[C@H](F)C(=O)N[C@@H]1COc1nccc2cc(C(N)=O)c(OC)cc12 (top concentration 10000 nM) | DND-41 | no |

I'd appreciate it if you could say whether COc1cccc2c1C(=O)c1c(O)c3c(c(O)c1C2=O)C[C@@](O)(C(=O)CO)C[C@@H]3O[C@H]1C[C@H](N)[C@@H](O)[C@H](C)O1 [Epirubicin] (top concentration 1000 nM) has selective drug sensitivity score at least equal to 1.
no

I'd appreciate it if you could say whether COc1cc([C@@H]2c3cc4c(cc3[C@@H](O[C@@H]3O[C@@H]5CO[C@@H](C)O[C@H]5[C@H](O)[C@H]3O)[C@H]3COC(=O)[C@H]23)OCO4)cc(OC)c1O [Etoposide] (top concentration 10000 nM) has selective drug sensitivity score at least equal to 1.
yes

I'd appreciate it if you could say whether C[C@]1(O)C[C@@H](c2nc(-c3ccc4ccc(-c5ccccc5)nc4c3)c3c(N)nccn32)C1 [Linsitinib] (top concentration 10000 nM) has selective drug sensitivity score at least equal to 1.
yes

I'd appreciate it if you could say whether Nc1cc(F)ccc1NC(=O)c1ccc(CNC(=O)/C=C/c2cccnc2)cc1 [Tucidinostat] (top concentration 10000 nM) has selective drug sensitivity score at least equal to 1.
yes

I'd appreciate it if you could say whether CN(c1ncccc1CNc1nc(Nc2ccc3c(c2)CC(=O)N3)ncc1C(F)(F)F)S(C)(=O)=O (top concentration 10000 nM) has selective drug sensitivity score at least equal to 1.
no

I'd appreciate it if you could say whether CC[C@@H]1C(=O)OC[C@@H]1Cc1cncn1C [Pilocarpine] (top concentration 40000 nM) has selective drug sensitivity score at least equal to 1.
yes

I'd appreciate it if you could say whether CC(C)Oc1ccc(-c2nn([C@@H](C)c3oc4ccc(F)cc4c(=O)c3-c3cccc(F)c3)c3ncnc(N)c23)cc1F [TGR-1202] (top concentration 2500 nM) has selective drug sensitivity score at least equal to 1.
yes

I'd appreciate it if you could say whether C[C@@]1(C(=O)Nc2ccc(F)nc2)CCCN1c1nc(Nc2cc(C3CC3)n[nH]2)c2cccn2n1 (top concentration 10000 nM) has selective drug sensitivity score at least equal to 1.
no

I'd appreciate it if you could say whether CCCCCCCCc1ccc(CCC(N)(CO)CO)cc1 [Fingolimod] (top concentration 10000 nM) has selective drug sensitivity score at least equal to 1.
yes

I'd appreciate it if you could say whether CNC(=O)c1cccc(-c2ccc3c(N4CCOC[C@@H]4C)nc(N4CCOC[C@@H]4C)nc3n2)c1 [Vistusertib] (top concentration 10000 nM) has selective drug sensitivity score at least equal to 1.
yes

I'd appreciate it if you could say whether NC(=O)N1CCC(CC(=O)N2CCC([C@H]3c4ncc(Br)cc4CCc4cc(Cl)cc(Br)c43)CC2)CC1 [Lonafarnib] (top concentration 100000 nM) has selective drug sensitivity score at least equal to 1.
yes
